Tested on: Pseudomonas aeruginosa 2396
Type: cell-based
MEASUREMENT PARAMETERS: agar serial dilution, 24 hours at 37°C
Catalogue of compounds with associated MIC
Express the result in µg/mL but write the number alone.

COMPOUND | MIC / µg/mL
CC1(C)S[C@@H]2[C@H](NC(=O)[C@H](NC(=O)NS(N)(=O)=O)c3ccccc3)C(=O)N2[C@H]1C(=O)O | 50
CC1(C)S[C@@H]2[C@H](NC(=O)[C@H](NS(N)(=O)=O)c3ccccc3)C(=O)N2[C@H]1C(=O)O | 50
CCOC(=O)NS(=O)(=O)N[C@@H](C(=O)N[C@@H]1C(=O)N2[C@@H]1SC(C)(C)[C@@H]2C(=O)O)c1ccccc1 | 100

Return reported MIC; argument: CC1(C)S[C@@H]2[C@H](NC(=O)C(C(=O)O)c3ccccc3)C(=O)N2[C@H]1C(=O)O (stereo partly shown) [carbenicillin, reference compound] 25

* * *

Tested on: Klebsiella pneumoniae A 809
Format: cell-based
MEASUREMENT PARAMETERS: A809, agar serial dilution, 24 hours at 37°C
Catalogue of molecules with associated MIC
Express the result in µg/mL but write the number alone.

Use the examples below as a reference point.
CHEMICAL SMILES | REPORTED VALUE
CC1(C)S[C@@H]2[C@H](NC(=O)[C@H](NC(=O)NS(=O)(=O)O)c3ccccc3)C(=O)N2[C@H]1C(=O)O | 100
CC1(C)S[C@@H]2[C@H](NC(=O)[C@H](NC(=O)NS(=O)(=O)Nc3ccccc3)c3ccccc3)C(=O)N2[C@H]1C(=O)O | 25
CC1(C)S[C@@H]2[C@H](NC(=O)[C@H](NC(=O)NS(=O)(=O)NCc3ccccc3)c3ccccc3)C(=O)N2[C@H]1C(=O)O | 12.5

Alright, here's another molecule for you.
MIC of CC(C)NS(=O)(=O)NC(=O)N[C@@H](C(=O)N[C@@H]1C(=O)N2[C@@H]1SC(C)(C)[C@@H]2C(=O)O)c1ccccc1 on Klebsiella pneumoniae A 809? 100

* * *

System: Pseudomonas aeruginosa Wyeth A 1058
Format: cell-based
MEASUREMENT PARAMETERS: WYETHA1058, agar serial dilution, 24 hours at 37°C
VALUE TYPE: MIC

MOLECULE | STUDY TARGET | MIC
CC1(C)S[C@@H]2C(NC(=O)C(N)c3ccccc3)C(=O)N2[C@H]1C(=O)O (stereo partly shown) [ampicillin, reference compound] | Pseudomonas aeruginosa Wyeth A 1058 | > 100 µg/mL
CCOC(=O)NNS(=O)(=O)NC(=O)N[C@@H](C(=O)N[C@@H]1C(=O)N2[C@@H]1SC(C)(C)[C@@H]2C(=O)O)c1ccccc1 [XV] | Pseudomonas aeruginosa Wyeth A 1058 | 100 µg/mL

Return reported MIC; argument: CCOC(=O)CNS(=O)(=O)NC(=O)N[C@@H](C(=O)N[C@@H]1C(=O)N2[C@@H]1SC(C)(C)[C@@H]2C(=O)O)c1ccccc1 [X] 25 µg/mL

Return reported MIC; argument: Cc1noc(NS(=O)(=O)NC(=O)N[C@@H](C(=O)N[C@@H]2C(=O)N3[C@@H]2SC(C)(C)[C@@H]3C(=O)O)c2ccccc2)c1C [XIII] 25 µg/mL

Return reported MIC; argument: CC1(C)S[C@@H]2[C@H](NC(=O)[C@H](NS(N)(=O)=O)c3ccccc3)C(=O)N2[C@H]1C(=O)O [XVIII] > 100 µg/mL

Return reported MIC; argument: CC(C)NS(=O)(=O)NC(=O)N[C@@H](C(=O)N[C@@H]1C(=O)N2[C@@H]1SC(C)(C)[C@@H]2C(=O)O)c1ccccc1 [IX] > 100 µg/mL

Return reported MIC; argument: CC(=NS(=O)(=O)N[C@@H](C(=O)N[C@@H]1C(=O)N2[C@@H]1SC(C)(C)[C@@H]2C(=O)O)c1ccccc1)N(C)C [XXI] > 100 µg/mL

Return reported MIC; argument: CCOS(=O)(=O)NC(=O)N[C@@H](C(=O)N[C@@H]1C(=O)N2[C@@H]1SC(C)(C)[C@@H]2C(=O)O)c1ccccc1 [VI] 25 µg/mL

* * *

Tested on: Klebsiella pneumoniae A 809
Type: cell-based
MEASUREMENT PARAMETERS: A809, agar serial dilution, 24 hours at 37°C
VALUE TYPE: MIC (µg/mL)
Express the result in µg/mL but write the number alone.

Use the examples below as a reference point.
MOLECULE | MIC / µg/mL
CC1(C)S[C@@H]2C(NC(=O)C(N)c3ccccc3)C(=O)N2[C@H]1C(=O)O (stereo partly drawn) [ampicillin, reference compound] | 50
Cc1cc(NS(=O)(=O)NC(=O)N[C@@H](C(=O)N[C@@H]2C(=O)N3[C@@H]2SC(C)(C)[C@@H]3C(=O)O)c2ccccc2)no1 | 50

Return reported MIC; argument: CC1(C)S[C@@H]2[C@H](NC(=O)[C@H](NC(=O)NS(=O)(=O)N3CCOCC3)c3ccccc3)C(=O)N2[C@H]1C(=O)O 100

* * *

Test system: Pseudomonas aeruginosa Wyeth A 1058
Format: cell-based
MEASUREMENT PARAMETERS: WYETHA1058, agar serial dilution, 24 hours at 37°C
Catalogue of compounds with associated MIC
Express the result in µg/mL but write the number alone.

CHEMICAL SMILES | READING UNIT | REPORTED VALUE
CC1(C)S[C@@H]2[C@H](NC(=O)[C@H](NC(=O)NS(=O)(=O)NCc3ccccc3)c3ccccc3)C(=O)N2[C@H]1C(=O)O | µg/mL | 12.5
Cc1cc(NS(=O)(=O)NC(=O)N[C@@H](C(=O)N[C@@H]2C(=O)N3[C@@H]2SC(C)(C)[C@@H]3C(=O)O)c2ccccc2)no1 | µg/mL | 25

Alright, here's another compound for you.
Return reported MIC; argument: CCOC(=O)NS(=O)(=O)N[C@@H](C(=O)N[C@@H]1C(=O)N2[C@@H]1SC(C)(C)[C@@H]2C(=O)O)c1ccccc1 50

* * *

Test system: Escherichia coli U 20
Just a reminder that ties go to f: only MIC strictly below 20 µg/mL counts as t.

Consider the worked cases shown below.
COMPOUND | GROUP LABEL
CC1(C)S[C@@H]2C(NC(=O)C(N)c3ccccc3)C(=O)N2[C@H]1C(=O)O (stereo partly shown) [ampicillin, reference compound] | t
CC1(C)S[C@@H]2[C@H](NC(=O)C(C(=O)O)c3ccccc3)C(=O)N2[C@H]1C(=O)O (stereo partly shown) [carbenicillin, reference compound] | t
Cc1cc(NS(=O)(=O)NC(=O)N[C@@H](C(=O)N[C@@H]2C(=O)N3[C@@H]2SC(C)(C)[C@@H]3C(=O)O)c2ccccc2)no1 | f
CCOS(=O)(=O)NC(=O)N[C@@H](C(=O)N[C@@H]1C(=O)N2[C@@H]1SC(C)(C)[C@@H]2C(=O)O)c1ccccc1 | t
CC1(C)S[C@@H]2[C@H](NC(=O)[C@H](NC(=O)NS(=O)(=O)N3CCOCC3)c3ccccc3)C(=O)N2[C@H]1C(=O)O | f

I wonder whether CC1(C)S[C@@H]2[C@H](NC(=O)[C@H](NC(=O)NS(=O)(=O)O)c3ccccc3)C(=O)N2[C@H]1C(=O)O has MIC below 20 µg/mL. Can you tell? f

I wonder whether CC1(C)S[C@@H]2[C@H](NC(=O)[C@H](NC(=O)NS(=O)(=O)Nc3cccnc3)c3ccccc3)C(=O)N2[C@H]1C(=O)O has MIC below 20 µg/mL. Can you tell? f

I wonder whether Cc1noc(NS(=O)(=O)NC(=O)N[C@@H](C(=O)N[C@@H]2C(=O)N3[C@@H]2SC(C)(C)[C@@H]3C(=O)O)c2ccccc2)c1C has MIC below 20 µg/mL. Can you tell? t

* * *

Measurement record for Streptococcus haemolyticus A 266; quantity recorded: MIC.
Express the result in mg/L but write the number alone.

COMPOUND | STUDY TARGET | READING UNIT | MIC
CC1(C)S[C@@H]2[C@H](NC(=O)[C@H](NC(=O)NS(N)(=O)=O)c3ccccc3)C(=O)N2[C@H]1C(=O)O [XVI] | Streptococcus haemolyticus A 266 | mg/L | 0.12
CC1(C)S[C@@H]2[C@H](NC(=O)[C@H](NC(=O)NS(=O)(=O)O)c3ccccc3)C(=O)N2[C@H]1C(=O)O [XVII] | Streptococcus haemolyticus A 266 | mg/L | 0.12
CN1CCCC1=NS(=O)(=O)N[C@@H](C(=O)N[C@@H]1C(=O)N2[C@@H]1SC(C)(C)[C@@H]2C(=O)O)c1ccccc1 [XXIII] | Streptococcus haemolyticus A 266 | mg/L | 0.06
CC(=NS(=O)(=O)N[C@@H](C(=O)N[C@@H]1C(=O)N2[C@@H]1SC(C)(C)[C@@H]2C(=O)O)c1ccccc1)N(C)C [XXI] | Streptococcus haemolyticus A 266 | mg/L | 0.12

Return reported MIC; argument: CC1(C)S[C@@H]2[C@H](NC(=O)[C@H](NC(=O)NS(=O)(=O)Nc3ccccc3)c3ccccc3)C(=O)N2[C@H]1C(=O)O [VII] 1

Return reported MIC; argument: CCOC(=O)NNS(=O)(=O)NC(=O)N[C@@H](C(=O)N[C@@H]1C(=O)N2[C@@H]1SC(C)(C)[C@@H]2C(=O)O)c1ccccc1 [XV] 0.5

Return reported MIC; argument: CCOC(=O)CNS(=O)(=O)NC(=O)N[C@@H](C(=O)N[C@@H]1C(=O)N2[C@@H]1SC(C)(C)[C@@H]2C(=O)O)c1ccccc1 [X] 0.25

Return reported MIC; argument: CCOC(=O)NS(=O)(=O)N[C@@H](C(=O)N[C@@H]1C(=O)N2[C@@H]1SC(C)(C)[C@@H]2C(=O)O)c1ccccc1 [XIX] 0.25

Return reported MIC; argument: CC1(C)S[C@@H]2[C@H](NC(=O)[C@H](NC(=O)NS(=O)(=O)N3CCOCC3)c3ccccc3)C(=O)N2[C@H]1C(=O)O [XIV] 3

Return reported MIC; argument: CC(C)NS(=O)(=O)NC(=O)N[C@@H](C(=O)N[C@@H]1C(=O)N2[C@@H]1SC(C)(C)[C@@H]2C(=O)O)c1ccccc1 [IX] 0.75

Return reported MIC; argument: CC1(C)S[C@@H]2[C@H](NC(=O)[C@H](NS(N)(=O)=O)c3ccccc3)C(=O)N2[C@H]1C(=O)O [XVIII] 0.06

Return reported MIC; argument: CC(C)N(C(C)C)S(=O)(=O)NC(=O)N[C@@H](C(=O)N[C@@H]1C(=O)N2[C@@H]1SC(C)(C)[C@@H]2C(=O)O)c1ccccc1 [VIII] 0.25

Return reported MIC; argument: CCOS(=O)(=O)NC(=O)N[C@@H](C(=O)N[C@@H]1C(=O)N2[C@@H]1SC(C)(C)[C@@H]2C(=O)O)c1ccccc1 [VI] 0.25
